target-entity: CyclinA2/CDK2 (Homo sapiens)
Construct: purchased CRELUX Protein Services
run-description: Fluorescence Polarization (FP) competitive binding assay, Cyclin A2/Cdk2;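 further: plates equilibrated two hours at room temperature before polarization reading, IC50 fitted from eight-concentration compound titration curves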
condition-notes: 8 nM Cyclin A2/Cdk2, 2 nM FAM probe; average of 2-3 independent experiments; read-out: Cyclin A FP IC50
*1 amine or outer side, *2 acyl side, *3 side chain or, on linkers, in order; H or OH if unused. Where a SMILES comes first, the peptide text is derived from it. Bridges are numbered along the chain shown (N, C = ends). [ ]: non-standard residue; d: D form. The star is where a group is joined. NMePhe(2-(4-MorPh),5-Cl) = CN[C@@H](Cc1cc(Cl)ccc1-c1ccc(N2CCOCC2)cc1)C(=O)O; X31 = CN1CCC(c2ccc(-c3ccc(Cl)cc3C[C@@H](C(=O)[*:2])N(C)[*:1])cc2)CC1; X108 = CN([C@@H](Cc1cc(Cl)ccc1-c1ccc(CN2CCOCC2)cc1)C(=O)[*:2])[*:1]; X141 = CN([C@@H](Cc1cc(Cl)ccc1C1=CCN(S(C)(=O)=O)C1)C(=O)[*:2])[*:1]; X178 = CN([C@@H](Cc1cc(F)ccc1-c1cnn(C2CCOC2)c1)C(=O)[*:2])[*:1]; NMehhhLys(Me) = CN([C@@H](CCCCCCCN(C)[*:3])C(=O)[*:2])[*:1]; X22 = CN([C@@H](Cc1cc(Cl)ccc1-c1cnn(C)c1)C(=O)[*:2])[*:1]; NMe(hhhLys) = CN([C@@H](CCCCCCCN[*:3])C(=O)[*:2])[*:1]; NMe3Pal(2-OMe,5-Cl) = CN[C@@H](Cc1cc(Cl)cnc1OC)C(=O)O; cBuCO(3,3-F2-1-CF3) = O=C(C1(C(F)(F)F)CC(F)(F)C1)*; Pro(trans-4-F) = O=C(O)[C@@H]1C[C@@H](F)CN1; Gly(cPr) = N[C@H](C(=O)O)C1CC1; X20 = O=C(C1(Cl)CC1)*
experimental-endpoint: pIC50
// scale note: pIC50 = -log10(conc_M); give the bare number

The following compounds have reported results that may help.
Ask | Return pIC50 (reported value) for this compound: CC(C)C[C@@H]1NC(=O)[C@@H](N(C)C(=O)[C@@H](NC(=O)[C@@H]2C[C@@H](F)CN2C(=O)C2(C(F)(F)F)CC(F)(F)C2)C2CC2)CCCCCCCN(C)C(=O)[C@H](Cc2cc(Cl)ccc2-c2ccc(C3CCN(C)CC3)cc2)N(C)C1=O [Example 358] ({cBuCO(3,3-F2-1-CF3)}-[Pro(trans-4-F)][Gly(cPr)][NMehhhLys(Me)]L[X31]; lactam 3-C)
Reply | 7.70

Ask | Answer with the recorded pIC50 for the compound listed here: `CC(C)C[C@@H]1NC(=O)[C@@H](N(C)C(=O)[C@@H](NC(=O)[C@@H]2C[C@@H](F)CN2C(=O)[C@@]2(C(F)(F)F)CCCCO2)C2CC2)C/C=C\CCCCN(C)C(=O)[C@H](Cc2cc(Cl)ccc2-c2cnn(C)c2)N(C)C1=O`
Reply | 7.70

Ask | Identify the reported pIC50 for the following entry. CC(C)C[C@@H]1NC(=O)[C@@H](N(C)C(=O)[C@@H](NC(=O)[C@@H]2C[C@@H](F)CN2C(=O)C2(C(F)(F)F)CC(F)(F)C2)C2CC2)CCCCCCCN(C)C(=O)[C@H](Cc2cc(Cl)ccc2-c2cnn(C)c2)N(C)C1=O [Example 49] ({cBuCO(3,3-F2-1-CF3)}-[Pro(trans-4-F)][Gly(cPr)][NMehhhLys(Me)]L[X22]; lactam 3-C)
Reply | 7.70

Ask | Please look at this compound and report its pIC50: CC(C)C[C@@H]1NC(=O)[C@@H](N(C)C(=O)[C@@H](NC(=O)[C@@H]2C[C@@H](F)CN2C(=O)C2(C(F)(F)F)CC(F)(F)C2)C2CC2)CCCCCCCN(C)C(=O)[C@H](Cc2cc(F)ccc2-c2cnn(C3CCOC3)c2)N(C)C1=O (stereo partly drawn) [Example 94] ({cBuCO(3,3-F2-1-CF3)}-[Pro(trans-4-F)][Gly(cPr)][NMehhhLys(Me)]L[X178]; lactam 3-C)
Reply | 7.70

Ask | Return the recorded pIC50 value; entry: CC(C)C[C@@H]1NC(=O)C(N(C)C(=O)[C@@H](NC(=O)[C@@H]2C[C@@H](F)CN2C(=O)C2(C(F)(F)F)CC(F)(F)C2)C2CC2)C/C=C\CCCCN(C)C(=O)[C@H](Cc2cc(Cl)ccc2-c2ccc(N3CCN(C)CC3)cc2)N(C)C1=O (stereo partly shown)
Reply | 7.70

Continuing:
Ask | Quickly give me recorded pIC50 for Cc1nnc(-c2ccc(Cl)cc2C[C@H]2C(=O)NCCCCC=CC[C@H](N(C)C(=O)[C@@H](NC(=O)[C@@H]3C[C@@H](F)CN3C(=O)C3(C(F)(F)F)CCC3)C3CC3)C(=O)N[C@@H](CC(C)C)C(=O)N2C)o1 (single isomer, unassigned) [Example 117-P2]
Reply | 7.22

Ask | Return value of pIC50 for input CC(=O)N1C2C=C(c3ccc(F)cc3C[C@H]3C(=O)N(C)CCCCCCC[C@H](N(C)C(=O)[C@@H](NC(=O)[C@@H]4C[C@@H](F)CN4C(=O)C4(C(F)(F)F)CC(F)(F)C4)C4CC4)C(=O)N[C@@H](CC(C)C)C(=O)N3C)CC1CC2 (stereo partly shown) , no commentary.
Reply | 7.70

Ask | Supply recorded pIC50 for CC(C)C[C@@H]1NC(=O)[C@@H](N(C)C(=O)[C@@H](NC(=O)[C@@H]2C[C@@H](F)CN2C(=O)C2(Cl)CC2)C2CC2)CCCCCCCN(C)C(=O)[C@H](Cc2cc(Cl)ccc2-c2ccc(N3CCOCC3)cc2)N(C)C1=O [Example 398] (X20-[Pro(trans-4-F)][Gly(cPr)][NMehhhLys(Me)]L[NMePhe(2-(4-MorPh),5-Cl)]; lactam 3-C) here.
Reply | 7.70

Ask | Using the record for `COCn1cc(-c2ccc(Cl)cc2C[C@H]2C(=O)N(C)CCCCC=CC[C@H](N(C)C(=O)[C@@H](NC(=O)[C@@H]3C[C@@H](F)CN3C(=O)C3(C(F)(F)F)CCC3)C3CC3)C(=O)N[C@@H](CC(C)C)C(=O)N2C)cn1` , state its measured pIC50.
Reply | 7.40

Ask | // fetch pIC50 given entry CC(C)C[C@@H]1NC(=O)[C@@H](N(C)C(=O)[C@@H](NC(=O)[C@@H]2C[C@@H](F)CN2C(=O)C2(C(F)(F)F)CC(F)(F)C2)C2CC2)CCCCCCCN(C)C(=O)[C@H](Cc2cc(Cl)ccc2-c2ccc(CN3CCOCC3)cc2)N(C)C1=O [Example 359] ({cBuCO(3,3-F2-1-CF3)}-[Pro(trans-4-F)][Gly(cPr)][NMehhhLys(Me)]L[X108]; lactam 3-C)
Reply | 7.70

Ask | Let me know recorded pIC50 for CC(C)C[C@@H]1NC(=O)[C@@H](N(C)C(=O)[C@@H](NC(=O)[C@@H]2C[C@@H](F)CN2C(=O)C2(C(F)(F)F)CC(F)(F)C2)C2CC2)CCCCCCCN(C)C(=O)[C@H](Cc2cc(Cl)ccc2C2=CCN(S(C)(=O)=O)C2)N(C)C1=O [Example 309] ({cBuCO(3,3-F2-1-CF3)}-[Pro(trans-4-F)][Gly(cPr)][NMehhhLys(Me)]L[X141]; lactam 3-C) , thanks.
Reply | 7.70

Ask | Given the compound COc1ncc(Cl)cc1C[C@H]1C(=O)NCCCCCCC[C@H](N(C)C(=O)[C@@H](NC(=O)[C@@H]2C[C@@H](F)CN2C(=O)C2(C(F)(F)F)CC(F)(F)C2)C2CC2)C(=O)N[C@@H](CC(C)C)C(=O)N1C [Example 275] ({cBuCO(3,3-F2-1-CF3)}-[Pro(trans-4-F)][Gly(cPr)][NMe(hhhLys)]L[NMe3Pal(2-OMe,5-Cl)]; lactam 3-C) , write its reported pIC50.
Reply | 7.30

Ask | Given `CC(C)C[C@@H]1NC(=O)[C@@H](N(C)C(=O)[C@@H](NC(=O)[C@@H]2C[C@@H](F)CN2C(=O)C2(C(F)(F)F)CC(F)(F)C2)C2CC2)CC=CCCCCN(C)C(=O)[C@H](Cc2cc(F)cnc2OC2CC2)N(C)C1=O` , respond with its pIC50.
Reply | 6.30
